assayComment: Phase 1 PK Part 1: relative bioavailability, dose proportionality, food effect of unmilled API tablet
Type: in vivo, human
runConditions: human, plasma, oral, 10 mg, Treatment D: 1 × 10 mg Formulation Concept 1 (unmilled API tablet), after high-fat breakfast; median
Description: This is a Phase 1, open-label, single dose, multicenter, 4-part study in healthy adult participants. Potential participants will be screened from Day −28 to Day −2 to determine participants' eligibility for study participation. […] In Parts 1 and 2, plasma concentrations will be determined for aticaprant. […] The following plasma PK parameters of aticaprant will be determined. […]
assayReadout: Tmax (h)
State just the number; it will be interpreted in h.

So for Cc1cc(C)cc(C2CCCN2Cc2ccc(Oc3ccc(C(N)=O)cc3F)cc2)c1 (stereo not shown) , the logged Tmax turned out to be 2.75
